Each entry below carries its recorded pKd.
experimentalTarget: T1, PUF4 RNA-binding domain (Saccharomyces cerevisiae, UniProt P25339 537-888)
T1 sequence: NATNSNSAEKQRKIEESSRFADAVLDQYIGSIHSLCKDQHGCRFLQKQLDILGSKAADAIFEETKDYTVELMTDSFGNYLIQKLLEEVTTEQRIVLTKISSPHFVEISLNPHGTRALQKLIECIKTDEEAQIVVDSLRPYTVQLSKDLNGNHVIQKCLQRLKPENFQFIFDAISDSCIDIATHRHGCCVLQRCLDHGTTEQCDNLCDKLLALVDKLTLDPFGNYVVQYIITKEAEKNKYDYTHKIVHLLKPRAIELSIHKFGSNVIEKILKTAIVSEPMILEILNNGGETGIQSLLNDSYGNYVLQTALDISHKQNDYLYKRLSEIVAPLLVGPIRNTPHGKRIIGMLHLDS
testDetails: Mg; RNA-MaP; 20 mM Na-HEPES pH 7.4, 30 mM KOAc, 0.75 mM MgCl2, 0.1% Tween-20, 5% glycerol, 0.1 mg/mL BSA, 2 mM DTT; 25 C; 0.0125-409.6 nM protein
runConditions: tags: N-His6-TEV cleaved; C-SNAP kept, Cy3B-labelled; label: tethered on chip by stalled RNA polymerase
pKd: −log10 of the molar value.
readoutKind: pKd

Id_ii_S4_P4E.3_K4.2_C4.2_H4.2_A4.1_F4.1_T4.2_[G10C] (ssRNA) RNA: UUUGACAACUGAUCGUUCUUUCUCUUAUAUAUUACUUUCUUUCUCGAUCAGUUGUCUUU: 8.29
Ib_S4_P4E.1_K4.1_C4.1_H4.1_[A4T]_A4.1_[T7C]_F4.1_T4.1 (ssRNA) RNA: UUUGACAACUGAUCGUUCUUUCUUGUUUACUAUUCUUUCUCGAUCAGUUGUCUUU: 8.15
UCUCUUAUACACUAUUAUAUCUCUU (ssRNA) [Id_ii_S1_P4E.4_K4.3_C4.2_[C-2A]_H4.3_A4.1_F4.1_T4.2_[G10T]_[T11A]]: 7.51
Id_ii_S2_P5E.4_K5.3_C5.2_[T-1C]_H5.3_A5.1_F5.1_T5.2_[A12T] (ssRNA) RNA: UUUGAUUAAUAUGAUAUCGUUCUUUCUCCACACUUAUUAUUUUCUUUCUCGAUAUCAUAUUAAUCUUU: 5.76
Ic_S2_P5E.1_K5.1_C5.1_H5.1_A5.1_[T5C]_[T6A]_[A7C]_F5.1_[T8A]_[A10G]_T5.1 (ssRNA) RNA: UUUGAUUAAUAUGAUAUCGUUCUUUCUUGUACACAUGUUCUUUCUCGAUAUCAUAUUAAUCUUU: 6.94
UCUCUUUGUAAUCUUUCUCUU (ssRNA) [Ic_S1_P4E.1_K4.1_C4.1_H4.1_A4.1_[T5A]_[A6T]_[T7C]_F4.1_[A9T]_T4.1]: 7.25
UCUCUUAUACACUAUACAUCUCUU (ssRNA) [Id_ii_S1_P3E.4_K3.3_C3.2_[C-2A]_H3.3_A3.1_F3.1_T3.2_[T9C]]: 7.46
Ie_S4_P5E.1_K5.1_C5.1_H5.1_[+3CCCTT]_A5.1_F5.1_T5.1 (ssRNA) RNA: UUUGACAACUGAUCGUUCUUUCUUGUCCCUUAUUAUUAUUCUUUCUCGAUCAGUUGUCUUU: 7.26
